Here, each record is paired with measured pKi data.
studyTarget: human GABA A α3β3γ2 (Homo sapiens, UniProt P18507+P34903)
assayNotes: [3H]flumazenil competition binding, HEK293 cells expressing human α3β3γ2
Parameters: expressed in transfected cells; host or cells: HEK293
setupConditions: [3H]flumazenil competition, human α3β3γ2; read-out: hKi α3
pKi: −log10 of the molar value.

{"columns": ["smilesString", "pKi"],
 "data": [
  ["Cc1onc(-c2ccccn2)c1COc1ccc(C(=O)N2CCOCC2)cn1", 6.41],
  ["Cc1nc2n(n1)Cc1c(Cl)ncn1-c1ccc(C#N)cc1-2", 6.98],
  ["Cc1onc(-c2ccccc2)c1COc1ccc(C(=O)NC(C)C)cn1", 6.96],
  ["Cc1onc(-c2ccc(Cl)cn2)c1COc1ccc(C(=O)N2CCSCC2)cn1", 7.75],
  ["Cc1onc(-c2ccccc2)c1COc1ccc(C(=O)N2CC3(COC3)C2)cn1", 6.40],
  ["Cc1onc(-c2ccc(F)cn2)c1COc1ccc(C(=O)N2CCS(=O)(=O)CC2)cn1", 7.12],
  ["Cc1ncn2c1Cn1nc(CN3CCCC3=O)nc1-c1cc(Br)ccc1-2", 6.29],
  ["Cc1onc(-c2ccc(Cl)cc2)c1COc1ccc(C(=O)N2CCOCC2)cn1", 6.66]
]}

* * *

assayNotes: 8581 concentration in serum after i.p. injection
Assay type: in vivo, mice
setupConditions: mouse, ip, 0.5 h after i.p. injection, 0.1 mg/kg, Nf1+/− mice

{"columns": ["smilesString", "unitsSymbol", "concentration at 0.5 h"],
 "data": [
  ["FC(F)c1ncn2c1Cn1ncnc1-c1cc(Br)ccc1-2", "ng/mL", 11]
]}

* * *

Here, each record is paired with measured Ki data.
studyTarget: human GABA A α3β3γ2 (Homo sapiens, UniProt P18507+P34903)
assayNotes: [3H]flumazenil competition binding, HEK293 cells expressing human α3β3γ2
Parameters: expressed in transfected cells; host or cells: HEK293
measuredProperty: Ki (nM)

{"columns": ["compound", "studyTarget", "measuredValue"],
 "data": [
  ["Cc1nc2n(n1)Cc1c(Cl)ncn1-c1ccc(Br)cc1-2 [Compound 8589]", "human GABA A α3β3γ2 (Homo sapiens, UniProt P18507+P34903)", 216],
  ["Cc1onc(-c2ccc(F)cc2)c1COc1ccc(C(=O)N2CCS(=O)(=O)CC2)cn1 [Compound R1]", "human GABA A α3β3γ2 (Homo sapiens, UniProt P18507+P34903)", 489],
  ["FC(F)c1ncn2c1Cn1ncnc1-c1cc(Br)ccc1-2 [Compound 8581]", "human GABA A α3β3γ2 (Homo sapiens, UniProt P18507+P34903)", 79.6],
  ["Clc1ccc2c(c1)-c1ncnn1Cc1c(Cl)ncn1-2 [Compound 8586]", "human GABA A α3β3γ2 (Homo sapiens, UniProt P18507+P34903)", 14]
]}

* * *

Here, each record is paired with measured Efficacy GABA A α1β2/3γ2 data.
studyTarget: human GABA A α1β2/3γ2 (Homo sapiens, UniProt P14867+P18507)
assayNotes: Two-microelectrode voltage clamp, modulation of GABA EC10 response in Xenopus oocytes, α1β2/3γ2
Assay type: cell-based
Design: expressed in transfected cells; host or cells: Xenopus laevis oocytes
setupConditions: % change of EC10 GABA response at 3 μM or at 30×Ki if Ki below 0.1 μM

{"columns": ["smilesString", "Efficacy GABA A α1β2/3γ2 [%]"],
 "data": [
  ["Cc1onc(-c2ccccn2)c1COc1ccc(C(=O)N2CCOCC2)cn1", "−3"],
  ["Cc1onc(-c2ccc(F)cn2)c1COc1ccc(C(=O)NC(C)C)cn1", "−15"],
  ["FC(F)c1ncn2c1Cn1ncnc1-c1cc(Br)ccc1-2", "−1"],
  ["Clc1ccc2c(c1)-c1ncnn1Cc1c(Cl)ncn1-2", "−5"],
  ["Cc1onc(-c2ccc(F)cn2)c1COc1ccc(C(=O)N2CCS(=O)(=O)CC2)cn1", 0],
  ["N#Cc1ccc2c(c1)-c1ncnn1Cc1c(C(F)F)ncn1-2", "−21"],
  ["Cc1onc(-c2ccccc2)c1COc1ccc(C(=O)N2CC3(COC3)C2)cn1", "−11"],
  ["Cc1nc2n(n1)Cc1c(Cl)ncn1-c1ccc(C#N)cc1-2", "−28"],
  ["Clc1ncn2c1Cn1ncnc1-c1ccccc1-2", "−37"],
  ["Cc1onc(-c2ccccc2)c1COc1ccc(C(=O)NC(C)C)cn1", "−19"],
  ["Cc1onc(-c2ccc(F)cc2)c1COc1ccc(C(=O)N2CCS(=O)(=O)CC2)cn1", "−4"]
]}

* * *

assayNotes: 8581 concentration in serum after i.p. injection
Type: in vivo, mice
setupConditions: mouse, ip, 3 h after i.p. injection, 1 mg/kg, Nf1+/− mice

{"columns": ["smilesString", "concentration at 3 h (ng/mL)"],
 "data": [
  ["FC(F)c1ncn2c1Cn1ncnc1-c1cc(Br)ccc1-2", 8.95]
]}

* * *

studyTarget: human GABA A α1β2/3γ2 (Homo sapiens, UniProt P14867+P18507)
assayNotes: [3H]flumazenil competition binding, HEK293 cells expressing human α1β2/3γ2
Parameters: expressed in transfected cells; host or cells: HEK293
setupConditions: binding selectivity ratio
Here, each record is paired with measured hKi α1/hKi α5 data.

{"columns": ["smilesString", "hKi α1/hKi α5"],
 "data": [
  ["Cc1onc(-c2ccccc2)c1COc1ccc(C(=O)N2CC3(COC3)C2)cn1", 42],
  ["Cc1nc2n(n1)Cc1c(CF)ncn1-c1ccc(Cl)cc1-2", 50],
  ["Clc1ccc2c(c1)-c1ncnn1Cc1c(Cl)ncn1-2", 7],
  ["Fc1ccc2c(c1)-c1ncnn1Cc1c(Br)ncn1-2", 4],
  ["Cc1ncn2c1Cn1nc(CN3CCCC3=O)nc1-c1cc(Br)ccc1-2", 88]
]}

* * *

Here, each record is paired with measured Ki data.
studyTarget: human GABA A α5β3γ2 (Homo sapiens, UniProt P18507+P31644)
assayNotes: [3H]flumazenil competition binding, HEK293 cells expressing human α5β3γ2
Set-up: expressed in transfected cells; host or cells: HEK293
measuredProperty: Ki (nM)

{"columns": ["compound", "studyTarget", "unitsSymbol", "measuredValue"],
 "data": [
  ["Cc1ncn2c1Cn1nc(CN3CCCC3=O)nc1-c1cc(Br)ccc1-2 [Compound 8591]", "human GABA A α5β3γ2 (Homo sapiens, UniProt P18507+P31644)", "nM", 7.1],
  ["Clc1ccc2c(c1)-c1ncnn1Cc1c(Cl)ncn1-2 [Compound 8586]", "human GABA A α5β3γ2 (Homo sapiens, UniProt P18507+P31644)", "nM", 2.1],
  ["Cc1nc2n(n1)Cc1c(Cl)ncn1-c1ccc(Br)cc1-2 [Compound 8589]", "human GABA A α5β3γ2 (Homo sapiens, UniProt P18507+P31644)", "nM", 6.1],
  ["FC(F)c1ncn2c1Cn1ncnc1-c1cc(Br)ccc1-2 [Compound 8581]", "human GABA A α5β3γ2 (Homo sapiens, UniProt P18507+P31644)", "nM", 4.6],
  ["Cc1nc2n(n1)Cc1c(Cl)ncn1-c1ccc(C#N)cc1-2 [Compound 8587]", "human GABA A α5β3γ2 (Homo sapiens, UniProt P18507+P31644)", "nM", 10.9]
]}

* * *

Here, each record is paired with measured log10(Ki) data.
studyTarget: human GABA A α2β3γ2 (Homo sapiens, UniProt P18507+P47869)
assayNotes: [3H]flumazenil competition binding, HEK293 cells expressing human α2β3γ2
Set-up: expressed in transfected cells; host or cells: HEK293
setupConditions: [3H]flumazenil competition, human α2β3γ2; read-out: hKi α2
measuredProperty: log10(Ki) (log10 of the value in µM)

{"columns": ["smilesString", "measuredProperty", "measuredValue"],
 "data": [
  ["FC(F)c1ncn2c1Cn1ncnc1-c1cc(Br)ccc1-2", "log10(Ki)", -0.73],
  ["Cc1onc(-c2ccc(Cl)cc2)c1COc1ccc(C(=O)N2CCOCC2)cn1", "log10(Ki)", -0.68],
  ["Cc1onc(-c2ccccn2)c1COc1ccc(C(=O)N2CCOCC2)cn1", "log10(Ki)", -0.53],
  ["Cc1nc2n(n1)Cc1c(Cl)ncn1-c1ccc(C#N)cc1-2", "log10(Ki)", -0.85],
  ["Cc1onc(-c2ccc(Cl)cn2)c1COc1ccc(C(=O)N2CCSCC2)cn1", "log10(Ki)", -1.97],
  ["Cc1ncn2c1Cn1nc(CN3CCCC3=O)nc1-c1cc(Br)ccc1-2", "log10(Ki)", -0.17],
  ["Cc1onc(-c2ccccc2)c1COc1ccc(C(=O)NC(C)C)cn1", "log10(Ki)", -1.00],
  ["Cc1onc(-c2ccccc2)c1COc1ccc(C(=O)N2CC3(COC3)C2)cn1", "log10(Ki)", -0.36],
  ["Cc1onc(-c2ccc(F)cn2)c1COc1ccc(C(=O)N2CCS(=O)(=O)CC2)cn1", "log10(Ki)", -1.27]
]}
